Entries below carry reported pIC50 on PIK3CG (human) (UniProt P48736).
Sequence (P48736 whole entry, looked up): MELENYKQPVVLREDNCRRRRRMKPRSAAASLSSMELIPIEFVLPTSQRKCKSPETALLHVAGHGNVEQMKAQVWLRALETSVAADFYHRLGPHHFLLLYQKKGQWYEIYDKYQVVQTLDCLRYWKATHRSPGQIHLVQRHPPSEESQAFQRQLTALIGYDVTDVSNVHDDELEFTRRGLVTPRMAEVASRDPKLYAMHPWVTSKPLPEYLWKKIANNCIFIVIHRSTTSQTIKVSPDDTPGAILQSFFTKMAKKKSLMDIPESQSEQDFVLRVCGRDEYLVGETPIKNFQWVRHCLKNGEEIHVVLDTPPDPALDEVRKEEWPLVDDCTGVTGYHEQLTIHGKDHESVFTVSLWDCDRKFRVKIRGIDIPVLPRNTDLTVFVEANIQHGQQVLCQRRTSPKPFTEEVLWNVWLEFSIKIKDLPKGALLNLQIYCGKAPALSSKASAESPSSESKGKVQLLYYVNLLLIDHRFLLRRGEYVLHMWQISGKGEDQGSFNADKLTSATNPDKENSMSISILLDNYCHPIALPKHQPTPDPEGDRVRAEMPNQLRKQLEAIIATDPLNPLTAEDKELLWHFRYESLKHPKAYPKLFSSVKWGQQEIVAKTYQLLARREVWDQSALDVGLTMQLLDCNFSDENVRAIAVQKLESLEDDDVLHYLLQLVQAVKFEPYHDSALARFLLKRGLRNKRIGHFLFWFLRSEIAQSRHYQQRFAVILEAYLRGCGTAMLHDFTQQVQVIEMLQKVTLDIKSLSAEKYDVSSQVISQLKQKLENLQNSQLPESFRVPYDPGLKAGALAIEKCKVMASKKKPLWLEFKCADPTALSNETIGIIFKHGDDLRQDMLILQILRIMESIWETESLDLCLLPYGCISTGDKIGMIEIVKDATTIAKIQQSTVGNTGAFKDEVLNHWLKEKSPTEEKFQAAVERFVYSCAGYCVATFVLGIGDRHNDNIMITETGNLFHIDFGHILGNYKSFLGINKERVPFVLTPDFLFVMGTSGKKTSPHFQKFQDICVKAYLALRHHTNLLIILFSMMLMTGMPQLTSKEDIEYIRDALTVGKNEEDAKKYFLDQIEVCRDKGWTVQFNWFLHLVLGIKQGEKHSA
pIC50: −log10 of the molar value.
quantity: pIC50

a = COC(=O)Nc1ccc(-c2nc(N3CCOCC3)c3cnn(C4CCN(Cc5cccnc5)CC4)c3n2)cc1
b = COc1ncc(-c2ccc3nccc(-c4ccnnc4)c3c2)cc1NS(=O)(=O)c1ccc(F)cc1F
c = c1cncc(CN2CCC(n3ncc4c(N5CCOCC5)nc(-c5ccc6[nH]ccc6c5)nc43)CC2)c1
Query: Arrange the 3 compounds by rising pIC50, starting with the smallest. Please respond by ranking the labels in the order requested.
Response: c, a, b

----------
- assayedTarget: PIK3CA (human)
quantity: pIC50
pIC50 here: minus log base 10 of the concentration, concentration in moles per litre.

Query: Query for PIK3CA (human): what pIC50 does the record show for COc1ccc(-c2ccc3c(N4CCOC[C@@H]4C)nc(N4CCOC[C@@H]4C)nc3n2)cc1CO ?
Response: 5.44

Cited source for all entries: the Kinase Knowledgebase extract (Sharma et al. 2016)
